assay method text: yeast display, Sf9 membrane polyspecificity reagent, FACS + sequencing; frameworks hold sequencing errors
parameter: polyreactivity (PSR sort gate)

Worked examples follow.
- sequence entry: "QVQLVESGGGLVQAGGSLRLSCAASGRSIYRNAMGWYRQAPGKERELVAAISGRGGGTYYADSVKGRFTLSRDNAKNTVYLQMNSVKPEETAVYYCAAERKNKYDYWGQGTQVTVSS"
  polyreactivity (PSR sort gate): "high polyreactivity"
- sequence entry: "QVQLVESGGGLVQAGGSLRISCDASGSIISRNAMGWYRQAPGKEREFVAAITRSGGSTSYADSVKGRFTISRDNAKNTVYLQMNSLKPEDTAVYYCAASYARSATAYYKYYDWGQGTQVTVSS"
  polyreactivity (PSR sort gate): "high polyreactivity"
- sequence entry: "QVQLVESGGGLVQAGGRLRLSCAATGRTFGRNAMGWYRQAPGKERELVAAINGNGGRTYYADSVKGRFTISRDNAKNTVYLQMNSLKPEDTAVYYCAADLRRSDYDYWGQGTKVTVSS"
  polyreactivity (PSR sort gate): "high polyreactivity"
- sequence entry: "QVQLVESGGGLVQAGGSLSLICAASRRSFYHYTMGWSRQAPGKERELVAAMTSGGSTYYADSVKGRFTISRDNAKNTVYLQMNSLKPEDTAVYYCARVRPLYDYSRYDYWGQRTQVTVSS"
  polyreactivity (PSR sort gate): "high polyreactivity"
- sequence entry: "QVQLVESGGGLVQAGGSLRLSCAASGRTFPYYAKGWYRQAPGKERELVAAISKRGGNTYYADSVKGRFTISRDNAKNTVYLQLNSLIPEVTAVYYCNALSSTEYDYWGQGTQVTVSS"
  polyreactivity (PSR sort gate): "high polyreactivity"
- sequence entry: "QVQLVESGGGLVQAGGSLRLSCAASGSTFVIYDMGWYRQAPGKERELVAAISYSGGSTYYADSVKGRFTISRDNAKNTVYLQMNSLKPEDTAVYYCNAGVLVLLYAYLPSEQEYWGQGTQVTVSS"
  polyreactivity (PSR sort gate): "low polyreactivity"
- sequence entry: "QVQLVESGGGLVQAGGSLRLSCAASGSIFTFYTMGWYRQAPGKERELVAAISQTGGRTYYADSVKGRFTISRDTAKNTVYLQMNSLKPEDTAVYYCDADYYYDISDWVYEYYYWGQGTQVTVSS"
  polyreactivity (PSR sort gate): "high polyreactivity"
- sequence entry: "QVQLVESGGGLVQAGGSLRLSCAASGSIFNTYAMGWYRQAPGKERELVAAITWSGGSTYYADSVKGRFTISRDNAKNTVYLQMNSLKPEDTAVYYCAARQRRQSYWGQGTQVTVSS"
  polyreactivity (PSR sort gate): "high polyreactivity"

Lookup: Consider the sequence shown here: QVQLVESGLGLVQEGGCLRVSCAASGSIFSHYAMGWDSQAPGKDREVVAAITGGGITYYADSVKGRFTISRDNAKNTVYLQMNSLIPEDTAVYYWATDSLIFTIFDYSGQGTQVTVSS What is its recorded polyreactivity (PSR sort gate)?
Found: low polyreactivity

Lookup: Consider the sequence shown here: QVQLVESGGCLVQAGGSLRLSCAASGSTLVIYAMGWYRQAPGKESELVAAINFSDGSTSYADSVKGRFTISRDNAKNTVYLQMNSLKPEDTAVYYCAADWWYGYSNYDYWGQGTQVTVSS What is its recorded polyreactivity (PSR sort gate)?
Found: low polyreactivity
